Recorded pKi for the following molecules
Target chain: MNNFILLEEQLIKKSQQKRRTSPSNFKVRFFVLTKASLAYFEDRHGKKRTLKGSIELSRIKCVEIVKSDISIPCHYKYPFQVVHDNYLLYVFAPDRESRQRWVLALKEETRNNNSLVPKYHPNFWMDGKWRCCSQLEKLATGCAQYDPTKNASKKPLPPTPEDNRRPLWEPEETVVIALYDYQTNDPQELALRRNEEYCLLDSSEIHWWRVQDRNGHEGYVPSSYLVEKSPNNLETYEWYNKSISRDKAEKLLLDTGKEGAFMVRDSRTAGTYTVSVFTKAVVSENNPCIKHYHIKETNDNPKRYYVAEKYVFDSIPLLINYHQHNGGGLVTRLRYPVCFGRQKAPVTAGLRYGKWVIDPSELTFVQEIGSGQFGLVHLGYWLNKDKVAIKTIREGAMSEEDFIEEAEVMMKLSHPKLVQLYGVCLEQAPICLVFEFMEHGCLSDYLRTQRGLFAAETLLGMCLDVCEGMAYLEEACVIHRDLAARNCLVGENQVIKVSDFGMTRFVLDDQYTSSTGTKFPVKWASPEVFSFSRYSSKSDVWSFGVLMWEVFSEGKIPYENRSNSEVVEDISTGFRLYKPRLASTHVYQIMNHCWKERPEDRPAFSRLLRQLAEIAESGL
pKi: −log10 of the molar value.

molecule	qualifierSign	pKi
O=C1CCC2(CCc3c(C(=O)Nc4cnn(Cc5ccccc5)c4)n[nH]c3C2)N1 (single isomer, unassigned) [Example 148b]	<	6.40
CC1(C)CCc2c(C(=O)Nc3cnn(C(c4cccnc4)C4CC[S+]([O-])CC4)c3)n[nH]c2C1 (single isomer, unassigned) [Example 147b]	=	8.40
CC1(C)CCc2c(C(=O)Nc3cnn(C(c4ccccc4)C4CNC4)c3)n[nH]c2C1 (single isomer, unassigned) [Example 34b]	=	9.15
CC1(C)CCc2c(C(=O)Nc3cnn(C(c4cccnc4)C4CCOCC4)c3)n[nH]c2C1 (single isomer, unassigned) [Example 88a]	=	10.00
N#Cc1cccc(Cn2cc(NC(=O)c3n[nH]c4c3CCC(c3cncnc3)C4)cn2)c1 (single isomer, unassigned) [Example 4b]	=	6.62
CC12Cc3[nH]nc(C(=O)Nc4cnn(C(c5ccccc5)C5CCS(=O)(=O)CC5)c4)c3CC1C2(F)F (stereo not drawn)	>	10.00

----------
Target sequence: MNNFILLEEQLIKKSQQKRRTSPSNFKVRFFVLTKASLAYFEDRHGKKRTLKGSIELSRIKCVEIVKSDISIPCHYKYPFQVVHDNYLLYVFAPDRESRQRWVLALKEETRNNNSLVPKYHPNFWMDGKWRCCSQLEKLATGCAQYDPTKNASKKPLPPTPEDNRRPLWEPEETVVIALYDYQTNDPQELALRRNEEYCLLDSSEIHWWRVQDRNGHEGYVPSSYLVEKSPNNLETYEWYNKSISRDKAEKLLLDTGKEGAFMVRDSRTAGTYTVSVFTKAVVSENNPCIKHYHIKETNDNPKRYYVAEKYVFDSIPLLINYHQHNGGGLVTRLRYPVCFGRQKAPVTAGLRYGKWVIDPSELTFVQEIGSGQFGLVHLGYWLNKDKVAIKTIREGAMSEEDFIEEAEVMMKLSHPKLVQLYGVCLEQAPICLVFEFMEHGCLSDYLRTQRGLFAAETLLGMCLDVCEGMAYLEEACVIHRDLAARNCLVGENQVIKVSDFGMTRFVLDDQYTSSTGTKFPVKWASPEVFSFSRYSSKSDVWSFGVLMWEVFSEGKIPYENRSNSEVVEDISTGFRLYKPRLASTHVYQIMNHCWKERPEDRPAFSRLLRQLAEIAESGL
pKi: −log10 of the molar value.

compound	pKi
CC1(C)CCc2c(C(=O)Nc3cnn(C(c4cccc(Cl)c4)C4CCOCC4)c3)n[nH]c2C1 (single isomer, unassigned) [Example 115b]	8.15
CC1(C)CCc2c(C(=O)Nc3cnn(C(c4ccccc4)C4CN(S(C)(=O)=O)C4)c3)n[nH]c2C1 (single isomer, unassigned) [Example 45a]	6.43
Cc1cccc(C(C2CNC2)n2cc(NC(=O)c3n[nH]c4c3CCC(C)(C)C4)cn2)c1 (single isomer, unassigned) [Example 47a]	8.70
O=C(Nc1cnn(Cc2ccccc2)c1)c1n[nH]c2c1CCC1(CCCC1=O)C2 (single isomer, unassigned) [Example 105a]	8.52
CN(C)CCC(c1ccccc1)n1cc(NC(=O)c2n[nH]c3c2CC2CC2(C)C3)cn1 (single isomer, unassigned) [Example 52d]	7.00
CC12Cc3c(C(=O)Nc4cnn(Cc5ccccc5)c4)n[nH]c3C1C2 (single isomer, unassigned) [Example 151b]	7.92
